Cited source for all entries: ChEMBL document CHEMBL3875149

Target entity: Acetylcholinesterase (Electrophorus electricus, UniProt O42275)
Sequence (O42275 whole entry): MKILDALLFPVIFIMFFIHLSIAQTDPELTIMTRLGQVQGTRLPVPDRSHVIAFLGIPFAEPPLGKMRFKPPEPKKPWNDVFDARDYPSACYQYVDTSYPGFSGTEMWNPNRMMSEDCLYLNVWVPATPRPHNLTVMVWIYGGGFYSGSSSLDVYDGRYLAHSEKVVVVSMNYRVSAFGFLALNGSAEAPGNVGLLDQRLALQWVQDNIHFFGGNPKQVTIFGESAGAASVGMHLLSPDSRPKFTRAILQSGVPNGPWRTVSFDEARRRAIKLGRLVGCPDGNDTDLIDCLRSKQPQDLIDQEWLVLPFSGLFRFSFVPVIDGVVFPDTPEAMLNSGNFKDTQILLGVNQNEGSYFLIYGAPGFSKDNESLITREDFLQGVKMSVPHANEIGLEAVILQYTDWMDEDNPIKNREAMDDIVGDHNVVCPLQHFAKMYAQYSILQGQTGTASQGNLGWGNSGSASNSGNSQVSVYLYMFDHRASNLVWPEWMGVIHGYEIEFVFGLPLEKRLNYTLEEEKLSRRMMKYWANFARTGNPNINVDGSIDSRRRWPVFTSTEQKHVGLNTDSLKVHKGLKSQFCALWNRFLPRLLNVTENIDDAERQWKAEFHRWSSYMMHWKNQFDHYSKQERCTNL
Assign a class from recorded IC50; defined classes: low end = under 80 µM, middle = from 80 µM up to 100 µM, high end = 100 µM and over

Here are 3 compounds together with their reported answers.
CCOC(=O)N1CCC(=NNC(=O)c2ccc(C(F)(F)F)cc2)CC1
high end
CCOC(=O)N1CCC(=NNC(=O)c2ccc(C(F)(F)F)cc2F)CC1
high end
O=C(NN=C1CC(c2ccccc2)NC(c2ccccc2)C1)c1ccc(F)cc1 (configuration not stated)
middle

Bin? CCOC(=O)N1CCC(=NNC(=O)c2ccc(F)cc2)CC1
high end

Entry CCOC(=O)N1CCC(=NNC(=O)c2ccc([N+](=O)[O-])cc2)CC1 please
high end

Then what about the compound O=C(NN=C1CC(c2ccccc2)NC(c2ccccc2)C1)c1ccc([N+](=O)[O-])cc1 (configuration not stated) ?
low end

Do the same for O=C(NN=C1CC(c2ccccc2)NC(c2ccccc2)C1)c1ccc(F)cc1C(F)(F)F (configuration not stated) please
low end

Thanks! And CCOC(=O)N1CCC(=NNC(=O)c2ccc(F)cc2C(F)(F)F)CC1 ?
high end

And COc1ccc(C(=O)NN=C2CC(c3ccccc3)NC(c3ccccc3)C2)cc1 (configuration not stated) ?
middle

Continue with CCOC(=O)N1CCC(=NNC(=O)c2ccc(C)cc2)CC1
middle

// same read-out, input: O=C(NN=C1CC(c2ccccc2)NC(c2ccccc2)C1)c1ccc(C(F)(F)F)cc1F (configuration not stated)
middle

Similarly, O=C(NN=C1CC(c2ccccc2)NC(c2ccccc2)C1)c1ccc(Cl)cc1 (configuration not stated) ?
low end

// query: Cc1ccc(C(=O)NN=C2CC(c3ccccc3)NC(c3ccccc3)C2)cc1 (configuration not stated)
low end

Then this compound: O=C(NN=C1CC(c2ccccc2)NC(c2ccccc2)C1)c1ccc(C(F)(F)F)cc1 (configuration not stated)
middle

* * *

Target entity: UniProt:P81908
Sequence (P81908 whole entry): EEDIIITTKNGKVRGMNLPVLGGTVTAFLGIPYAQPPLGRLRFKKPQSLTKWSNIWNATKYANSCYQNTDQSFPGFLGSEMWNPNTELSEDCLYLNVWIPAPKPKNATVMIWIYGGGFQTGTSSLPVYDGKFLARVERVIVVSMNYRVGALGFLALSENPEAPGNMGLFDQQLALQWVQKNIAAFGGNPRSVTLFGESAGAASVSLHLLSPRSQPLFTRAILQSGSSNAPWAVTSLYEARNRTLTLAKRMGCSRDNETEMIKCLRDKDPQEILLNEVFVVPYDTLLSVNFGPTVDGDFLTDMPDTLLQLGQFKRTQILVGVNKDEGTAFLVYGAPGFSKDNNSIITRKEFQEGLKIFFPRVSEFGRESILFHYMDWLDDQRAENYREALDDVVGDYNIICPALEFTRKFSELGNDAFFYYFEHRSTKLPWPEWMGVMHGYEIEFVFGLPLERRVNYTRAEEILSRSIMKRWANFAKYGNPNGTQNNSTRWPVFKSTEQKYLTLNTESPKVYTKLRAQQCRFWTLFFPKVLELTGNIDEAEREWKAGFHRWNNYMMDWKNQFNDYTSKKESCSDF
Assay summary: Inhibition of horse serum butyrylcholinesterase by Ellman's method
Reported IC50 is given for each of the following compounds.
Form entry: value (µM) — number only.

Reference set (4 entries):
CCOC(=O)N1CCC(=NNC(=O)c2ccc(C(F)(F)F)cc2F)CC1
95.1
CCOC(=O)N1CCC(=NNC(=O)c2ccc(OC)cc2)CC1
82.2
CCOC(=O)N1CCC(=NNC(=O)c2ccc(Cl)cc2)CC1
69.5
O=C(NN=C1CC(c2ccccc2)NC(c2ccccc2)C1)c1ccccc1 (configuration not stated)
66

Entry under review: O=C(NN=C1CC(c2ccccc2)NC(c2ccccc2)C1)c1ccc(F)cc1 (configuration not stated) . Reported IC50?
72.8

# iterate: Cc1ccc(C(=O)NN=C2CC(c3ccccc3)NC(c3ccccc3)C2)cc1 (configuration not stated)
50.1

* * *

Assay summary: Antioxidant activity assessed as cupric reducing capacity after 1 hr by spectrophotometric analysis
Format: functional
Catalogue of A0.5 readings, one per entry.
Give the number; µM is assumed, so skip it.

CCOC(=O)N1CCC(=NNC(=O)c2ccc(C)cc2)CC1
11.1
Cc1ccc(C(=O)NN=C2CC(c3ccccc3)NC(c3ccccc3)C2)cc1 (stereo not given)
50.6
O=C(NN=C1CC(c2ccccc2)NC(c2ccccc2)C1)c1ccc(Cl)cc1 (stereo not given)
49.8

# lookup: A0.5 of CCOC(=O)N1CCC(=NNC(=O)c2ccc(OC)cc2)CC1
36.9

What about this compound? O=C(NN=C1CC(c2ccccc2)NC(c2ccccc2)C1)c1ccc(C(F)(F)F)cc1F (stereo not given)
85.2

And the next one, O=C(NN=C1CC(c2ccccc2)NC(c2ccccc2)C1)c1ccc(C(F)(F)F)cc1 (stereo not given) ?
92.1
